- test-target: B.1.1.7 Spike (SARS-CoV2)
pKd: −log10 of the molar value.
readout-label: pKd

binder	readout-label	result
Ab_23 scFv-Fc (scFv, V domains shown) VH: EVQLVQSGAEVKKPGSSVKVSCRSSGGTFSTYGITWVRQAPGQGLEWMGRIIPSLGIPNYAQKFQGRVTITADTSVSTAWMELSSLESDDTAIYYCARENIDLATNDFWGQGTLVTVSS VL: QSALTQPPSASGSPGQSVTISCTGTSRDIGAYGYVSWYQQVPGKAPKLIIYEVRNRPSGVSSRFSGSKSGNTASLTISGLQAEDEADYYCSSYTSSSTLDVVFGGGTKLTVL	pKd	11.04
